system: 786-O (renal cell carcinoma) cells; assay: Cell viability (CellTiter Glo) assay, inhibition of 786-O cell proliferation; type: cell-based; conditions: Homo sapiens, 786-0; 786-O cells, 72 hours, CellTiter Glo; read-out: IC50, inhibition of 786-O cell proliferation
pIC50: −log10 of the molar value.
measurement label: pIC50

CCCCOc1ccc(N2C(=O)C3(CC3)c3cnc(COC(=N)N(CC(F)(F)F)C(C)C)nc32)cc1 [Compound E161]
6.30 to 7.00
CCN(CC(F)(F)F)C(=N)OCc1cc(Nc2ccc(Oc3ccccc3)cc2)cnn1 [Compound F48]
5.30 to 6.30
CC1(C)C(=O)N(c2cc(F)c3c(c2)CCCO3)c2nc(COC(=N)N3CCC[C@@H]3C(F)(F)F)nc(NCC(F)(F)F)c21 [Compound E51]
> 7.00
CC(C)N(CC(F)(F)F)C(=N)OCc1ncc2c(n1)N(c1ccc(Oc3ccccc3)cc1)CC21CC1 [Compound E137]
> 7.00
CCN(CC)c1ncc(N2C(=O)C3(CCCC3)c3c(NC(C)C)nc(COC(=N)N4CCC[C@@H]4C(F)(F)F)nc32)cn1 [Compound E76]
6.30 to 7.00

Quick one: pIC50 for N=C(OCc1nc(N)c2c(n1)N(c1cnc(C(F)(F)F)nc1)C(=O)C21CCCC1)N1CCC[C@@H]1C(F)(F)F [Compound E90] ? 6.30 to 7.00

Which measured pIC50 value corresponds to CNc1nc(COC(=N)N2CCOCC2C(F)(F)F)nc2c1C(C)(C)C(=O)N2c1cnc(N2C[C@@H](C)O[C@@H](C)C2)nc1 (some centres unmarked) [Compound E218] ? 5.30 to 6.30

Quick one: pIC50 of CC(C)N(CC(F)(F)F)C(=N)OCc1ncc(C2CCOCC2)c(Nc2ccc(N3CCOCC3)nc2)n1 [Compound E124] ? < 5.30

Which measured pIC50 value corresponds to CC1(C)C(=O)N(c2ccc(N3CCOCC3)cc2)c2nc(COC(=N)N3CCC[C@@H]3C(F)(F)F)nc(N)c21 [Compound E117] ? > 7.00

Name the recorded pIC50 for C[C@@H]1CN(c2ncc(N3C(=O)C4(CCCC4)c4c(NC5CCC5)nc(COC(=N)N5CCC[C@@H]5C(F)(F)F)nc43)cn2)C[C@H](C)O1 [Compound E92] . 6.30 to 7.00

---

// values below are reported IC50
test system: 786-O (renal cell carcinoma) cells; assay: Cell viability (CellTiter Glo) assay, inhibition of 786-O cell proliferation; type: cell-based; settings: Homo sapiens, 786-0; 786-O cells, 72 hours, CellTiter Glo; read-out: IC50, inhibition of 786-O cell proliferation

Past entries and their recorded results:
CCN1CCN(C(=N)OCc2nc(N)c3c(n2)N(c2ccc(Oc4ccccc4)cc2)CC3(C)C)C2(CC2)C1=O [Compound E5]
0.1 to 0.5 µM
CC(C)N(CC(F)(F)F)C(=N)OCc1ncc2c(n1)N(c1ccc(OC3CCCC3)nc1)C(=O)C21CC1 [Compound E132]
0.1 to 0.5 µM
CNc1nc(COC(=N)N2CCC[C@@H]2C(F)(F)F)nc2c1C(C)(C)C(=O)N2c1cnc(N2C[C@@H](C)O[C@@H](C)C2)c(F)c1 [Compound E36]
< 0.1 µM

Give the measured IC50 of COc1cc(N2CCOCC2)ccc1N1CC(C)(C)c2c(N)nc(COC(=N)N3CCC[C@@H]3C(F)(F)F)nc21 [Compound E77] . < 0.1 µM

Which IC50 is reported for this molecule? N=C(OCc1nc(NC2CC2)c2c(n1)N(c1cnc(N3CCOCC3)nc1)C(=O)C21CCCC1)N1CCC[C@@H]1C(F)(F)F [Compound E111] < 0.1 µM

Which measured IC50 value corresponds to CNc1nc(COC(=N)N2CCCC2C(F)(F)F)nc2c1C(C)(C)C(=O)N2c1ccc(OC2CCCCC2)cc1 (centres unmarked) [Compound E173] ? < 0.1 µM

Item CNc1nc(COC(=N)N2CCC[C@@H]2C(F)(F)F)nc2c1C(C)(C)C(=O)N2c1cnc(N2C[C@@H](C)O[C@@H](C)C2)nc1 [Compound E217] has what recorded IC50? < 0.1 µM

Using the record for CC#CC(C)(C)N(C)C(=N)OCc1nc(N)c2c(n1)N(c1ccc(N3CCOCC3)cc1)C(=O)C2(C)C [Compound E27] , report its IC50. 0.5 to 5 µM

---

test system: 786-O (renal cell carcinoma) cells; assay: Cell viability (CellTiter Glo) assay, inhibition of 786-O cell proliferation; type: cell-based; settings: Homo sapiens, 786-0; 786-O cells, 72 hours, CellTiter Glo; read-out: IC50, inhibition of 786-O cell proliferation
measurement label: IC50

Reference set, count: 2
CNc1nc(COC(=N)N2CCC[C@@H]2C(F)(F)F)nc2c1C(C)(C)C(=O)N2c1ccc(N2C[C@@H](C)O[C@@H](C)C2)nc1 [Compound E69]
< 100 nM
C[C@@H]1CN(c2ncc(N3C(=O)C(C)(C)c4c(N)nc(COC(=N)N5CCC[C@@H]5C(F)(F)F)nc43)cn2)C[C@H](C)O1 [Compound E105]
< 100 nM

// IC50 lookup, key: CCN(CC(F)(F)F)C(=N)OCc1nc(N)nc(Nc2ccc(Oc3ccccc3)cc2)n1 [Compound F45] < 100 nM

---

Reported pIC50 values for the following compounds.
tested on: 786-O (renal cell carcinoma) cells; experiment: Cell viability (CellTiter Glo) assay, inhibition of 786-O cell proliferation; type: cell-based; settings: Homo sapiens, 786-0; 786-O cells, 72 hours, CellTiter Glo; read-out: IC50, inhibition of 786-O cell proliferation
pIC50: −log10 of the molar value.

N=C(OCc1nc(N)c2c(n1)N(c1cnc(N3CCC(F)(F)C3)nc1)C(=O)C21CCCC1)N1CCC[C@@H]1C(F)(F)F
> 7.00
N=C(OCc1nc(C(F)F)c2c(n1)N(c1ccc(N3CCOCC3)cc1)C(=O)C21CCCC1)N1CCC[C@@H]1C(F)(F)F
5.30 to 6.30
CNc1nc(COC(=N)N2CCC[C@@H]2C(F)(F)F)nc2c(-c3ccc(N4CCOCC4)cc3OC)coc12
> 7.00

Which pIC50 reading was recorded for the compound [2H]C([2H])(OC(=N)N(CC(F)(F)F)C(C)C)c1nc(N)c2c(n1)N(c1ccc(OC3CCCCC3)cc1)CC2(C)C ? > 7.00

---

tested on: 786-O (renal cell carcinoma) cells; test: Cell viability (CellTiter Glo) assay, inhibition of 786-O cell proliferation; format: cell-based; details: Homo sapiens, 786-0; 786-O cells, 72 hours, CellTiter Glo; read-out: IC50, inhibition of 786-O cell proliferation
# Lookup of reported IC50 keyed by entry

Known IC50 results, listed for orientation:
CN(C)C(=N)OCc1nc(N)nc(Nc2ccc3ccccc3c2)n1
100 to 500 nM
CCCC[C@H]1Cc2cc(OC)ccc2[C@H](c2ccc(F)cc2)N1C(=O)COC(=N)N1CCN(C)C(=O)C1
500 to 5000 nM
N=C(OCc1nc(N)nc(Nc2ccc(Oc3ccccc3)cc2)n1)N1CCCO1
100 to 500 nM
CNc1nc(COC(=N)N2CCCC2C(F)(F)F)nc2c1C(C)(C)C(=O)N2c1ccc(N2CCOCC2)cc1 (stereo not shown)
< 100 nM
CNc1nc(COC(=N)N2CCC[C@H]2C(F)(F)F)nc2c1C(C)(C)C(=O)N2c1ccc(N2C[C@@H](C)O[C@@H](C)C2)nc1
100 to 500 nM
CNc1nc(COC(=N)N2CCC[C@@H]2C(F)(F)F)nc2c1C(C)(C)C(=O)N2c1ccc(N2C[C@H](C)C[C@H](C)C2)c(F)c1
< 100 nM

Attention now shifts to the item below.
Request the reported IC50 associated with CC1(C)CN(c2ccc(N3CCOCC3)cc2)c2nc(COC(=N)N3CCCC3C(F)(F)F)nc(N)c21 (stereo not shown) < 100 nM

---

Some compounds, each annotated with its measured IC50.
tested on: 786-O (renal cell carcinoma) cells; assay: Cell viability (CellTiter Glo) assay, inhibition of 786-O cell proliferation; type: cell-based; settings: Homo sapiens, 786-0; 786-O cells, 72 hours, CellTiter Glo; read-out: IC50, inhibition of 786-O cell proliferation

CNc1nc(COC(=N)N2CCC[C@@H]2C(F)(F)F)nc2c1C(C)(C)CN2c1ccc(N2CCOCC2)cc1OC
< 100 nM
C[C@@H]1C[C@H](C)CN(c2ccc(N3C(=O)C(C)(C)c4c(NCC(F)(F)F)nc(COC(=N)N5CCC[C@@H]5C(F)(F)F)nc43)cc2F)C1
< 100 nM

Looking for the measured IC50 of CC(C)N(CC(F)(F)F)C(=N)OCc1ncc2c(n1)N(c1ccc(OC3CC3)nc1)C(=O)C21CC1 , can you help? 500 to 5000 nM

Fill blank: measured IC50 of the compound CNc1nc(COC(=N)N2CCOCC2C(F)(F)F)nc2c1C(C)(C)C(=O)N2c1cnc(N2CCC(F)(F)C2)nc1 (stereo not shown) is ____. 100 to 500 nM

Param item = N=C(OCc1nc(NC2CC2)c2c(n1)N(c1ccc(N3CCOCC3)c(F)c1)C(=O)C21CCCCC1)N1CCC[C@@H]1C(F)(F)F ; retrieve measured IC50. < 100 nM
